Method Notes: Acumen qHTS Assay for Inhibitors of the mTORC1 Signaling Pathway in MEF (Tsc2-/-, p53-/-) Cells: Hit Validation;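 for activity change, negative = inhibition: cells exposed to compound for 24 hours; plate controls were DMSO for no effect and 7.5 nM rapamycin control for full effect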
Experimental Conditions: Acumen imaging; at 37.3 µM (top of the series)
Records with an inconclusive call do not appear.
Observable: activity change, negative = inhibition

>  <Substance Smiles>
CCCCN(C)CCNC(=O)c1cc2c(=O)n(C)c3ccccc3c2n1C

>  <Observable>
activity change, negative = inhibition

>  <Experimental Result>
-0.172%

$$$$

-- ask Identify measured activity change, negative = inhibition corresponding to COc1ccc(NC(=O)CSc2c3c(nc4ccccc24)CCC3)c(OC)c1
-- reply 11.1%

-- ask Identify measured activity change, negative = inhibition corresponding to COCCCNC(=O)c1ccc(CSc2nc3cccnc3n2Cc2ccc(OC)cc2)cc1
-- reply 2.82%

-- ask Identify measured activity change, negative = inhibition corresponding to Cc1c(Cl)cccc1-c1ccc(C(=O)Nc2ccc3oc(-c4cccnc4)nc3c2)o1
-- reply -39.9%

-- ask Identify measured activity change, negative = inhibition corresponding to CCCCN(CCCNC(=O)c1cc(Nc2cccc(SC)c2)nc2ccccc12)Cc1ccccc1
-- reply -95.1%

###

Catalogue of activity change, negative = inhibition readings, one per entry.
Method Notes: Acumen qHTS Assay for Inhibitors of the mTORC1 Signaling Pathway in MEF (Tsc2-/-, p53-/-) Cells: Hit Validation;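 for activity change, negative = inhibition: cells exposed to compound for 24 hours; plate controls were DMSO for no effect and 7.5 nM rapamycin control for full effect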
Experimental Conditions: Acumen imaging; at 37.3 µM (top of the series)
Results filed as inconclusive are left out.
Kindly provide the numeric value in % only, without the unit symbol.

>  <Molecule>
CC1=Nc2cc(C(=O)NC3CCCC3)ccc2Sc2ccc(Br)cc21

>  <activity change, negative = inhibition, %>
-107

$$$$
>  <Molecule>
O=C(Nc1cccc(C(F)(F)F)c1)c1cnn(-c2cccc(F)c2)c1C1CCNCC1

>  <activity change, negative = inhibition, %>
-13.8

$$$$
>  <Molecule>
CCOC(=O)c1ccc(N2C(=O)c3n[nH]c(C)c3C2c2cccc(Br)c2)cc1 (stereo unspecified)

>  <activity change, negative = inhibition, %>
4.8

$$$$
>  <Molecule>
Cc1ccccc1CS(=O)(=O)c1ncc(Cl)c(C(=O)Nc2nnc(C(C)C)s2)n1

>  <activity change, negative = inhibition, %>
-92.9

$$$$
>  <Molecule>
CCCOCc1cc(CN2CCN(c3ccccc3OC)CC2)c(O)c2ncccc12

>  <activity change, negative = inhibition, %>
-93.6

$$$$
>  <Molecule>
Cc1nn(CCCC(=O)NCc2ccccc2)c(=O)c2c1sc1ccccc12

>  <activity change, negative = inhibition, %>
13.7

$$$$
>  <Molecule>
Nc1nc(Nc2ccccc2F)sc1C(=O)c1ccc(Cl)cc1

>  <activity change, negative = inhibition, %>
-5.15

$$$$
>  <Molecule>
COc1ccccc1CNC(=O)CCCn1c(=O)c2cccn2c2ccccc21

>  <activity change, negative = inhibition, %>
-1.89

$$$$

Consider now this further molecule.
-- ask Identify measured activity change, negative = inhibition corresponding to COc1ccc(-c2nc(CCNC(=O)c3c(F)cccc3Cl)cs2)cc1
-- reply -0.104

###

Method Notes: Acumen qHTS Assay for Inhibitors of the mTORC1 Signaling Pathway in MEF (Tsc2-/-, p53-/-) Cells: Hit Validation;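 note: phospho-rpS6 Ser235/236 immunofluorescence normalized to propidium iodide cell count; nearly all actives have a fitted effect of over 65% in size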; note: potency is the fitted concentration of half-maximal effect
Experimental Conditions: Acumen imaging
Inconclusive results are not listed. The source made the active and inactive calls. Calls follow the shape of the dose curve; as a rule, active = well fitted inhibition curve with a large enough effect; inconclusive = small, poorly fitted or top-dose-only effect; inactive = no such curve, though single readings can be large or run the other way.
Catalogue of Potency readings, one per entry.

-- ask Identify measured Potency corresponding to O=C(NCC1CCN(Cc2cccc(Cl)c2)CC1)Nc1ccc(F)c(Cl)c1
-- reply 9.27 µM (active)

-- ask Identify measured Potency corresponding to CCNC(=O)c1c(NC(=O)c2nc(S(=O)(=O)CC)ncc2Cl)sc2c1CCCC2
-- reply 1.31 µM (active)

-- ask Identify measured Potency corresponding to COc1ccc(S(=O)(=O)NCCc2csc3nc(-c4ccc(Cl)cc4)nn23)cc1C
-- reply 11.7 µM (active)

-- ask Identify measured Potency corresponding to COc1ccc(N(Cc2ccccc2)C(=O)c2nc(S(C)(=O)=O)ncc2Cl)cc1
-- reply 1.85 µM (active)

###

Catalogue of Potency readings, one per entry.
Method Notes: Acumen qHTS Assay for Inhibitors of the mTORC1 Signaling Pathway in MEF (Tsc2-/-, p53-/-) Cells: Hit Validation;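 note: phospho-rpS6 Ser235/236 immunofluorescence normalized to propidium iodide cell count; nearly all actives have a fitted effect of over 65% in size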; note: potency is the fitted concentration of half-maximal effect
Experimental Conditions: Acumen imaging
Inconclusive results are not listed. The source made the active and inactive calls. Calls come from the whole dose curve; as a rule, active = well fitted inhibition curve with a large enough effect; inconclusive = small, poorly fitted or top-dose-only effect; inactive = no such curve, though single readings can be large or run the other way.

Solved cases (8 shown):
>  <Compound>
COc1ccc(CCNC(=O)c2ccc3c(c2)N(Cc2ccccc2)CCS3)cc1OC

>  <Experimental Result>
5.21 µM (active)

$$$$
>  <Compound>
CCc1ccc(NC(=O)Cn2c(=O)n(-c3ccc(OC)cc3)c(=O)c3ccc(C(=O)NCc4ccc(C)cc4)cc32)cc1

>  <Experimental Result>
4.65 µM (active)

$$$$
>  <Compound>
CCS(=O)(=O)c1oc(-c2ccc(F)cc2)nc1S(=O)(=O)c1ccc(Br)cc1

>  <Experimental Result>
4.14 µM (active)

$$$$
>  <Compound>
COc1ccc(-c2cc(C(F)(F)F)nc(S(=O)(=O)CCCC(=O)Nc3ccccc3C(F)(F)F)n2)cc1OC

>  <Experimental Result>
13.1 µM (active)

$$$$
>  <Compound>
O=C(Nc1ccc2oc(-c3ccc4ccccc4c3)nc2c1)c1cc(Br)ccc1Cl

>  <Experimental Result>
9.27 µM (active)

$$$$
>  <Compound>
CC(C)Cc1ccc(S(=O)(=O)N2CCC(c3ccncc3)CC2)cc1

>  <Experimental Result>
4.65 µM (active)

$$$$
>  <Compound>
Cc1cccc(OCC(O)Cn2c(=N)n(CCN3CCCCC3)c3ccccc32)c1 (centres undefined)

>  <Experimental Result>
5.85 µM (active)

$$$$
>  <Compound>
COc1ccc(OC)c(Nc2c3c(nc4ccccc24)CCC3)c1

>  <Experimental Result>
3.29 µM (active)

$$$$

Consider now this further compound.
-- ask Identify measured Potency corresponding to CCOC(=O)c1ccc(NC(=O)c2nc(S(=O)(=O)Cc3ccccc3)ncc2Cl)cc1
-- reply 4.65 µM (active)

###

Method Notes: Acumen qHTS Assay for Inhibitors of the mTORC1 Signaling Pathway in MEF (Tsc2-/-, p53-/-) Cells: Hit Validation;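 note: phospho-rpS6 Ser235/236 immunofluorescence normalized to propidium iodide cell count; nearly all actives have a fitted effect of over 65% in size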;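 for activity change, negative = inhibition: cells exposed to compound for 24 hours; plate controls were DMSO for no effect and 7.5 nM rapamycin control for full effect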
Experimental Conditions: Acumen imaging; at 37.3 µM (top of the series)
Results filed as inconclusive are left out.
activity change, negative = inhibition of -10% or higher: met. Under -10%: not met.

A selection of reference data follows.
>  <Compound>
Cc1ccccc1Oc1nc2ccccn2c(=O)c1/C=C(\C#N)c1nc2ccccc2[nH]1

>  <Class Label>
met

$$$$
>  <Compound>
Cc1ccc(C(=O)Nc2c(C(=O)NCc3ccc(Cl)cc3)sc3nc(C)cc(C)c23)cc1

>  <Class Label>
not met

$$$$
>  <Compound>
CC[C@H](CO)Nc1nc(NCc2ccccc2)c2ncn(C(C)C)c2n1

>  <Class Label>
not met

$$$$
>  <Compound>
Cc1oc(-c2ccccc2F)nc1Cn1c(SCc2cccc(Cl)c2)nc2ccncc21

>  <Class Label>
not met

$$$$
>  <Compound>
O=C(NCc1ccccc1)c1ccc2c(c1)N(Cc1ccccc1F)C(=O)c1ccccc1S2=O (stereo not given)

>  <Class Label>
not met

$$$$
>  <Compound>
CCC(C)n1c(SCc2c(F)cccc2Cl)nc2ccsc2c1=O (stereo not given)

>  <Class Label>
not met

$$$$
>  <Compound>
COc1ccc(N2CCN(C(=O)C3CCN(Cc4nc(-c5ccc(Cl)cc5)oc4C)CC3)CC2)cc1

>  <Class Label>
not met

$$$$
>  <Compound>
Cc1ccc(C(=O)CC2(O)C(=O)N(Cc3ccccc3F)c3ccccc32)cc1 (stereo not given)

>  <Class Label>
not met

$$$$
>  <Compound>
Cc1nn(CC(=O)NCc2ccccc2Cl)c(=O)c2cccn12

>  <Class Label>
met

$$$$

Consider the additional compound presented here.
-- ask State whether the measured activity change, negative = inhibition reaches -10%, counting equality as reaching it, for O=C(Cn1c(=O)n(Cc2ccc3c(c2)OCO3)c(=O)c2ccc(C(=O)NC3CCCCC3)cc21)Nc1ccccc1F
-- reply not met

###

Method Notes: Acumen qHTS Assay for Inhibitors of the mTORC1 Signaling Pathway in MEF (Tsc2-/-, p53-/-) Cells: Hit Validation;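 note: phospho-rpS6 Ser235/236 immunofluorescence normalized to propidium iodide cell count; nearly all actives have a fitted effect of over 65% in size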; note: potency is the fitted concentration of half-maximal effect
Experimental Conditions: Acumen imaging
Records with an inconclusive call do not appear. The source made the active and inactive calls. The call rests on the fitted dose curve; in most records, active means well fitted inhibition curve with a large enough effect; inconclusive means small, poorly fitted or top-dose-only effect; inactive means no such curve, though single readings can be large or run the other way.
Observable: Potency

>  <Compound>
Cc1c(C(=O)OCCOc2ccccc2)[nH]c2c1C(=O)CC(c1ccccc1)C2 (stereo not given)

>  <Experimental Result>
0.117 µM (active)

$$$$
>  <Compound>
CCS(=O)(=O)c1ncc(Cl)c(C(=O)Nc2ccccc2)n1

>  <Experimental Result>
1.31 µM (active)

$$$$
>  <Compound>
COC(=O)c1ccccc1NC(=O)c1nc(S(=O)(=O)Cc2cccc(C)c2)ncc1Cl

>  <Experimental Result>
4.14 µM (active)

$$$$
>  <Compound>
CCOC(=O)c1ccc(-c2ccc(/C=C(\C#N)c3nc4ccc(C)cc4[nH]3)o2)cc1

>  <Experimental Result>
4.14 µM (active)

$$$$
>  <Compound>
COc1ccc(NC(=O)C(NC(=O)/C=C\c2ccc3c(c2)OCO3)c2ccccc2)cc1 (stereo not given)

>  <Experimental Result>
11.7 µM (active)

$$$$
>  <Compound>
Cc1c(C(=O)OC2CCC(C)CC2)[nH]c2c1C(=O)CC(c1ccc(F)cc1)C2 (stereo not given)

>  <Experimental Result>
1.04 µM (active)

$$$$
>  <Compound>
COc1cc(C(=O)Nc2ccc(NC(=O)c3ccc(C(C)(C)C)cc3)cc2)cc(OC)c1OC

>  <Experimental Result>
10.4 µM (active)

$$$$
>  <Compound>
Cc1ccc(Nc2nc(C(N)=O)c(NC(=O)c3ccccc3Br)s2)cc1

>  <Experimental Result>
5.85 µM (active)

$$$$

-- ask Identify measured Potency corresponding to COc1ccc2nc(NC(=O)c3nc(S(=O)(=O)Cc4ccccc4)ncc3Cl)sc2c1
-- reply 5.85 µM (active)

-- ask Identify measured Potency corresponding to Cc1ccc2c(c1)C(=O)C(=O)N2Cc1ccc(OC(C)C)cc1
-- reply 0.0736 µM (active)
